- Assayed target: Acetylcholinesterase (Electrophorus electricus, UniProt O42275)
- Sequence (O42275 whole entry): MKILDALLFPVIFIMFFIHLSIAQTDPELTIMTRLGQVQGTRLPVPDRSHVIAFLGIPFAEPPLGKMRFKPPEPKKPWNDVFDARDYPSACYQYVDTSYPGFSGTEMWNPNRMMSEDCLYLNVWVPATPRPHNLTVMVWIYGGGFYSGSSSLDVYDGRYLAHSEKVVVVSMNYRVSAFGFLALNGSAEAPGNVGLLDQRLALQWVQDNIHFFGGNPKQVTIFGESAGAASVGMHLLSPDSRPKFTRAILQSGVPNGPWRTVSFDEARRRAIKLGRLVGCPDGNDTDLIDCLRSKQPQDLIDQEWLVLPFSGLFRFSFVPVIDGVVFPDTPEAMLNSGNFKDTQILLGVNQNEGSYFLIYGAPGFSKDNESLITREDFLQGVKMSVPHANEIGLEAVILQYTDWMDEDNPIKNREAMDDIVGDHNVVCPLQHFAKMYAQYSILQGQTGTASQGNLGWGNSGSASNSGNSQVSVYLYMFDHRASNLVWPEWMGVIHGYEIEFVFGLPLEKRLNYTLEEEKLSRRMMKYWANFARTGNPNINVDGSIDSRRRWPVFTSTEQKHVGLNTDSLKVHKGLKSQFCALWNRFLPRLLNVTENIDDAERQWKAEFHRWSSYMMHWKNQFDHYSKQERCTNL
Reported endpoint: IC50

Compound	IC50
O=C1C(=O)N(CCCCCN2C(=O)C(=O)c3ccccc32)c2ccccc21	> 50 µM
O=C1N(CCCCCCCN2C(=O)C(O)(c3c[nH]c4ccccc34)c3ccccc32)c2ccccc2C1(O)c1c[nH]c2ccccc12 (stereo unspecified)	> 50 µM
O=C1N(CCN2C(=O)C(O)(c3c[nH]c4ccccc34)c3ccccc32)c2ccccc2C1(O)c1c[nH]c2ccccc12 (stereo unspecified)	> 50 µM
O=C1N(CCCCCCCCN2C(=O)C(O)(c3c[nH]c4ccccc34)c3ccccc32)c2ccccc2C1(O)c1c[nH]c2ccccc12 (stereo unspecified)	> 50 µM
O=C1C(=O)N(CCN2C(=O)C(=O)c3ccccc32)c2ccccc21	> 125 µM

Okay, here is my list. What is IC50 for each of these?
1. O=C1Nc2ccccc2C1(O)c1c[nH]c2ccccc12 (stereo unspecified)
2. O=C1Nc2ccccc2C1=O [ISATIN]
3. O=C1N(CCCCN2C(=O)C(O)(c3c[nH]c4ccccc34)c3ccccc32)c2ccccc2C1(O)c1c[nH]c2ccccc12 (stereo unspecified)
4. O=C1C(=O)N(CCCCN2C(=O)C(=O)c3ccccc32)c2ccccc21
5. O=C1C(=O)N(CCCCCCN2C(=O)C(=O)c3ccccc32)c2ccccc21
6. O=C1N(CCCCCCN2C(=O)C(O)(c3c[nH]c4ccccc34)c3ccccc32)c2ccccc2C1(O)c1c[nH]c2ccccc12 (stereo unspecified)
7. O=C1C(=O)N(CCCCCCCN2C(=O)C(=O)c3ccccc32)c2ccccc21
8. O=C1C(=O)N(CCCN2C(=O)C(=O)c3ccccc32)c2ccccc21

1. 1300 µM
2. > 1000 µM
3. > 50 µM
4. > 125 µM
5. > 50 µM
6. > 50 µM
7. > 50 µM
8. > 125 µM

Okay, here is my list. What is IC50 for each of these?
1. O=C1N(CCCCCN2C(=O)C(O)(c3c[nH]c4ccccc34)c3ccccc32)c2ccccc2C1(O)c1c[nH]c2ccccc12 (stereo unspecified)
2. O=C1N(CCCN2C(=O)C(O)(c3c[nH]c4ccccc34)c3ccccc32)c2ccccc2C1(O)c1c[nH]c2ccccc12 (stereo unspecified)
3. O=C1C(=O)N(CCCCCCCCN2C(=O)C(=O)c3ccccc32)c2ccccc21

1: > 50 µM; 2: > 50 µM; 3: > 50 µM

Where these numbers come from: ChEMBL document CHEMBL5150026
